- Test system: S. enterica typhimurium tolC KO
- METHOD NOTES: growth AUC normalised to DMSO control (median) (fraction of control); higher = less growth inhibition, active = hit call of the paper
- CONDITION LABEL: 20 µM
Counter-ions that a name gives are not always drawn.
Respond with a class label; see active, inactive

A selection of reference data follows.
>>> print(df.to_string())
                                   compound  answer_label
0          NCCCCCC(=O)O [Aminocaproic acid]      inactive
1       O=C(O)c1ccccc1OP(=O)(O)O [Fosfosal]      inactive
2  c1ccc([C@H]2CN3CCSC3=N2)cc1 [Levamisole hydrochloride]      inactive
3  CC(C)C(=O)c1c(C(C)C)nn2ccccc12 [Ibudilast]      inactive
4  COCCOC(=O)C1=C(C)NC(C)=C(C(=O)OC(C)C)C1c1cccc([N+](=O)[O-])c1 (stereo unspecified) [Nimodipine]      inactive

Query block: So what was the verdict on Cc1cccc(C)c1NC(=O)CN1CCN(CCCC(c2ccc(F)cc2)c2ccc(F)cc2)CC1 [Lidoflazine] in this test?
Result block: inactive

====

- Test system: Shigella flexneri
- METHOD NOTES: growth AUC normalised to DMSO control (fraction of control); higher = less growth inhibition, active = hit call of the paper
- CONDITION LABEL: 20 µM
Counter-ions that a name gives are not always drawn.
OBSERVABLE: growth AUC normalised to DMSO control
Kindly provide the number alone.

In [3]: df
Out[3]:
                                   compound  data_value
0  CC(=O)O[C@]1(C(C)=O)CC[C@H]2[C@@H]3C=C(Cl)C4=CC(=O)[C@@H]5C[C@@H]5[C@]4(C)[C@H]3CC[C@@]21C [Cyproterone acetate]        1.01
1  C[C@]12CCC(=O)C=C1CC[C@@H]1[C@@H]2C(=O)C[C@@]2(C)[C@H]1CC[C@]2(O)C(=O)CO [Cortisone]       0.945
2  CC1=C(/C=C/C(C)=C/C=C/C(C)=C\C(=O)O)C(C)(C)CCC1 [Isotretinoin]       0.992
3  C/C(=C(\CCOP(=O)(O)O)SC(=O)c1ccccc1)N(C=O)Cc1cnc(C)nc1N [Benfotiamine]       0.982

Query block: Provide the documented growth AUC normalised to DMSO control with Shigella flexneri as the system for Clc1ccc(Cn2c(CN3CCCC3)nc3ccccc32)cc1 [Clemizole hydrochloride]
Result block: 0.988

Query block: Provide the documented growth AUC normalised to DMSO control with Shigella flexneri as the system for O=C(c1ccc(F)cc1)C1CCN(CCn2c(=O)[nH]c3ccccc3c2=O)CC1 [Ketanserin tartrate hydrate]
Result block: 1.03

Query block: Provide the documented growth AUC normalised to DMSO control with Shigella flexneri as the system for O=C(O)c1cc(/N=N/c2ccc(S(=O)(=O)Nc3ccccn3)cc2)ccc1O [Sulfasalazine]
Result block: 1.01

Query block: Provide the documented growth AUC normalised to DMSO control with Shigella flexneri as the system for NC(=O)OCC(O)COc1ccc(Cl)cc1 (stereo not drawn) [Chlorphensin carbamate]
Result block: 1.01

====

- Tested on: Salmonella enterica typhimurium
- METHOD NOTES: growth AUC normalised to DMSO control (fraction of control); higher = less growth inhibition, active = hit call of the paper
- CONDITION LABEL: 20 µM
Respond with a class label; see t = active, f = inactive

>>> df
                                   molecule  answer_label
0              O=C1c2c(O)cccc2Cc2cccc(O)c21             f
1  C#C[C@]1(O)CC[C@H]2[C@@H]3CCC4=CC(=O)CC[C@@H]4[C@H]3CC[C@@]21CC             f
2           O=C1O[C@H]([C@@H](O)CO)C(O)=C1O             f
3  Cc1c(OCC(F)(F)F)ccnc1C[S+]([O-])c1nc2ccccc2[nH]1 (centres undefined)             f

Query block: So what was the verdict on "S=c1[nH]cnc2nc[nH]c12" in this test?
Result block: f

====

- System: P. vulgatus WT
- METHOD NOTES: growth AUC normalised to DMSO control (median) (fraction of control); higher = less growth inhibition, active = hit call of the paper
- CONDITION LABEL: 20 µM
Structures can show the parent of a compound that is named as a salt.
OBSERVABLE: growth AUC normalised to DMSO control

Some compounds with recorded growth AUC normalised to DMSO control:
>>> df
                                   compound       data_value
0  CCCN1CCCC[C@H]1C(=O)Nc1c(C)cccc1C [Ropivacaine hydrochloride]  1.03 (inactive)
1  O=C(c1ccc(OCCN2CCCCC2)cc1)c1c(-c2ccc(O)cc2)sc2cc(O)ccc12 [Raloxifene hydrochloride]  1.01 (inactive)

Query block: // growth AUC normalised to DMSO control lookup, key: CCCCCCOc1ccccc1C(N)=O [Exalamide]
Result block: 1.04 (inactive)

Query block: // growth AUC normalised to DMSO control lookup, key: CN(C)CC/C=C1/c2ccccc2COc2ccc(CC(=O)O)cc21 [Olopatadine hydrochloride]
Result block: 0.984 (inactive)

Query block: // growth AUC normalised to DMSO control lookup, key: "OC(Cn1cncn1)(Cn1cncn1)c1ccc(F)cc1F"
Result block: 1.06 (inactive)

====

- Test system: S. enterica typhimurium tolC KO
- METHOD NOTES: growth AUC normalised to DMSO control (median) (fraction of control); higher = less growth inhibition, active = hit call of the paper
- CONDITION LABEL: 20 µM
Counter-ions that a name gives are not always drawn.
OBSERVABLE: growth AUC normalised to DMSO control
Kindly provide the number alone.

Some compounds with recorded growth AUC normalised to DMSO control:
>>> print(df.to_string())
                                   compound  data_value
0  CCCCc1cc2ccccc2c(OCCN(C)C)n1 [Dimethisoquin hydrochloride]       0.918
1  O=C(c1cc(O)c(O)c(O)c1)c1ccc(O)c(O)c1O [Exifone]       0.995
2  CCC(Cc1c(I)cc(I)c(N)c1I)C(=O)O (centres undefined) [Iopanoic acid]       0.987
3        CC(=O)Nc1ccc(C(=O)O)cc1 [Acedoben]       0.997
4  CCc1cccc(CC)c1NC(=O)CN(CC(=O)O)CC(=O)O [Etifenin]       0.993
5  CC(=O)Nc1ccc(OCC(O)CNC(C)C)cc1 (centres undefined) [Practolol]        1.02
6  Cc1nc2ccccn2c(=O)c1CCN1CCC(C(=O)c2ccc(F)cc2)CC1 [Pirenperone]       0.986
7  C#C[C@]1(O)CC[C@H]2[C@@H]3[C@H](C)CC4=C(CCC(=O)C4)[C@H]3CC[C@@]21C [Tibolone]       0.986

Query block: // growth AUC normalised to DMSO control lookup, key: Cc1ncc(CO)c(CO)c1O [Pyridoxine hydrochloride]
Result block: 0.992

Query block: // growth AUC normalised to DMSO control lookup, key: CC(C(=O)O)c1ccc(-c2ccccc2)c(F)c1 (centres undefined) [Flurbiprofen]
Result block: 0.977

Query block: // growth AUC normalised to DMSO control lookup, key: CCCCCCOc1ccccc1C(N)=O [Exalamide]
Result block: 0.917

Query block: // growth AUC normalised to DMSO control lookup, key: CC(=O)c1ccc2c(c1)N(CCCN(C)C)c1ccccc1S2 [Acetopromazine maleate salt]
Result block: 0.969

Query block: // growth AUC normalised to DMSO control lookup, key: CCOC1O[C@H]([C@@H](COCc2ccccc2)OCc2ccccc2)[C@H](OCc2ccccc2)[C@H]1O (some centres undefined) [Tribenoside]
Result block: 0.959

Query block: // growth AUC normalised to DMSO control lookup, key: N[C@H]1CONC1=O [(S,-) Cycloserine]
Result block: 0.996

====

- Tested on: P. vulgatus RND KO
- METHOD NOTES: growth AUC normalised to DMSO control (median) (fraction of control); higher = less growth inhibition, active = hit call of the paper
- CONDITION LABEL: 20 µM
Structures can show the parent of a compound that is named as a salt.
OBSERVABLE: growth AUC normalised to DMSO control
Kindly provide the number alone.

Some compounds with recorded growth AUC normalised to DMSO control:
                                   compound  target_or_test_system  data_value
0  COCCCOc1cc(C[C@@H](C[C@H](N)[C@@H](O)C[C@H](C(=O)NCC(C)(C)C(N)=O)C(C)C)C(C)C)ccc1OC [Aliskiren hemifumarate]     P. vulgatus RND KO           1
1  CN(C)C(=O)C(CCN1CCC(O)(c2ccc(Cl)cc2)CC1)(c1ccccc1)c1ccccc1 [Loperamide hydrochloride]     P. vulgatus RND KO           1
2  CN(C)CCN(Cc1ccc(Cl)cc1)c1ccccn1 [Chloropyramine hydrochloride]     P. vulgatus RND KO        1.07
3  COC(=O)C1=C(C#N)NC(C)=C(C(=O)OC(C)C)C1c1cccc([N+](=O)[O-])c1 (stereo unspecified)     P. vulgatus RND KO        1.15
4  CC(=O)Oc1ccc(C(c2ccc(OC(C)=O)cc2)c2ccccn2)cc1     P. vulgatus RND KO        1.02

Query block: // growth AUC normalised to DMSO control lookup, key: CCCc1c2oc(C(=O)O)cc(=O)c2cc2c(=O)cc(C(=O)O)n(CC)c12 [Nedocromil sodium]
Result block: 1.02

Query block: // growth AUC normalised to DMSO control lookup, key: "COC(=O)Nc1nc2cc(C(=O)c3ccc(F)cc3)ccc2[nH]1"
Result block: 1.04

Query block: // growth AUC normalised to DMSO control lookup, key: CNC(=C[N+](=O)[O-])NCCSCc1ccc(CN(C)C)o1 [Ranitidine hydrochloride]
Result block: 1.01

Query block: // growth AUC normalised to DMSO control lookup, key: CN1CCc2c(c3ccccc3n2Cc2ccccc2)C1 [Mebhydroline 1,5-naphtalenedisulfonate]
Result block: 0.948

Query block: // growth AUC normalised to DMSO control lookup, key: O=C(O)CCNC(=O)c1ccc(/N=N/c2ccc(O)c(C(=O)O)c2)cc1 [Balsalazide disodium salt]
Result block: 1.02

Query block: // growth AUC normalised to DMSO control lookup, key: O=C(NCC(O)CO)c1c(I)c(C(=O)NCC(O)CO)c(I)c(N(CCO)C(=O)CO)c1I (stereo unspecified)
Result block: 1.03

Query block: // growth AUC normalised to DMSO control lookup, key: CCN(CC)C(=O)Nc1ccc(OCC(O)CNC(C)(C)C)c(C(C)=O)c1 (stereo unspecified) [Celiprolol hydrochloride]
Result block: 0.997
